# target-of-assay: Adenosine receptor A3 (Homo sapiens, UniProt P0DMS8)
# Sequence (P0DMS8 whole entry): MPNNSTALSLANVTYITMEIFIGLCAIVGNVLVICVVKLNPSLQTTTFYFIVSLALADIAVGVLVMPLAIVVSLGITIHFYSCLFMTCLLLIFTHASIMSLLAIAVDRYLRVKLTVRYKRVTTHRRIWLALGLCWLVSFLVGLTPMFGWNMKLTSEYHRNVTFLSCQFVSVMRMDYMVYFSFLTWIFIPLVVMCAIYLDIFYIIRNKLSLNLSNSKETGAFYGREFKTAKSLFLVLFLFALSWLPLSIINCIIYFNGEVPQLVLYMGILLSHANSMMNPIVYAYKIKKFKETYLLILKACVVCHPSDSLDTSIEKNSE
reported-property: Ki (nM)
Write down the numeric answer in nM and omit the unit.

structure-notation	Ki (nM)
N#Cc1c(N)nc(SCc2ncc[nH]2)c(C#N)c1-c1ccc(OCC2CC2)cc1	474

### Prompt GET /values?readout=Ki&item= `C=CCOc1ccc(-c2c(C#N)c(N)nc(SCC(N)=O)c2C#N)cc1`
### Response 444
